- system: HDAC6 enzyme (Homo sapiens)
- Construct: transducing full length HDAC6 gene into Sf-9 insect cells; GST; purchased SignalChem; host or cells: Sf-9 insect cells
- Sequence (Q9UBN7 1-1215): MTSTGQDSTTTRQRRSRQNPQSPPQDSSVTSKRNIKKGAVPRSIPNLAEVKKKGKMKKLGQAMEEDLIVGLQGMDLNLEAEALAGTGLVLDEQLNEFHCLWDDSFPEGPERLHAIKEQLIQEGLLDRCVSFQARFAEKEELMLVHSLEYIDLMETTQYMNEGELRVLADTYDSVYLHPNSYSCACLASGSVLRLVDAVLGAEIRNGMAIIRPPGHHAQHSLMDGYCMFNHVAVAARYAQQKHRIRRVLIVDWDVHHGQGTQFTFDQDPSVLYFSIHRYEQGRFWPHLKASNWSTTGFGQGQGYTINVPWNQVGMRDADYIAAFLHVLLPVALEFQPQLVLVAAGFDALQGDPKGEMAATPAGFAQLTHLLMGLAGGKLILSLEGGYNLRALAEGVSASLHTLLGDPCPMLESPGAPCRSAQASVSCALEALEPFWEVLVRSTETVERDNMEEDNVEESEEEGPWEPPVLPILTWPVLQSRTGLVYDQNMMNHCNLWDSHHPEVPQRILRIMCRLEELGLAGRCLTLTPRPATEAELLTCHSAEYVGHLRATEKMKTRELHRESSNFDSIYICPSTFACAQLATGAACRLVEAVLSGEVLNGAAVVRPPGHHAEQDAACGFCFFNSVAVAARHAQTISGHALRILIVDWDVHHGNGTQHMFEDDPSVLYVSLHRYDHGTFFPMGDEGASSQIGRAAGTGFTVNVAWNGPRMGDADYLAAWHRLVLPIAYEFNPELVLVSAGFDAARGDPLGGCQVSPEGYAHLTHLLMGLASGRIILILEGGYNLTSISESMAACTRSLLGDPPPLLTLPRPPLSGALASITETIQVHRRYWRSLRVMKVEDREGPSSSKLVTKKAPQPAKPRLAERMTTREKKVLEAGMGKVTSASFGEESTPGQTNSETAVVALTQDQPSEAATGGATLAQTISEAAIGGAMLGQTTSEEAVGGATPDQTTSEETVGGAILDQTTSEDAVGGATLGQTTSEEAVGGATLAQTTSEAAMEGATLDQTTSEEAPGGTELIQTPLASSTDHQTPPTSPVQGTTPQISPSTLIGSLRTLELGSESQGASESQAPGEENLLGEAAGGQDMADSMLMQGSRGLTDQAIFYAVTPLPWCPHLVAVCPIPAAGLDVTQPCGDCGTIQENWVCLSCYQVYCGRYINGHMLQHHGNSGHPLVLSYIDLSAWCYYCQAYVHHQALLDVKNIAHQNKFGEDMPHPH
- protocol_notes: HDAC6 enzyme inhibitory activity (HDAC-Glo I/II Assay kit)
- Type: biochemical
- measurement_setup: 10 μM; wells without enzyme = 100% inhibition; read-out: HDAC6 inhibitory rate (%) (10 μM)
Each entry below carries its recorded inhibition at 10 µM.

{"columns": ["structure_string", "inhibition at 10 µM (%)"],
 "data": [
  ["O=C(N[C@@H]1COCC[C@H]1N1Cc2c(F)cc(-c3nnc(C(F)F)o3)cc2C1=O)c1cccc(Cl)c1", 100],
  ["O=C(N[C@@H]1CCCC[C@H]1N1Cc2ccc(-c3nnc(C(F)F)o3)cc2C1=O)C1COC1", 100],
  ["O=C1c2cc(-c3nnc(C(F)F)o3)ccc2CN1c1cccc(Cl)c1-c1cccc(F)c1", 100],
  ["CCC(F)(F)C(=O)N[C@@H]1CCOC[C@H]1N1Cc2c(F)cc(-c3nnc(C(F)F)o3)cc2C1=O", 100],
  ["O=C(N[C@@H]1CCCC[C@H]1N1Cc2ccc(-c3nnc(C(F)F)o3)cc2C1=O)C1CCOCC1", 96],
  ["O=C1OCCN1[C@@H]1CCCC[C@H]1N1Cc2c(F)cc(-c3nnc(C(F)F)o3)cc2C1=O", 98],
  ["O=C1c2cc(-c3nnc(C(F)F)o3)ccc2CN1c1ccccc1Br", 95],
  ["O=C1c2cc(-c3nnc(C(F)F)o3)ccc2CN1c1ccccc1-c1cccc(OC(F)(F)F)c1", 97]
]}
